Cited source for all entries: patent US10647690B2

Entries and their Inhibition % (1 μM) replicate 2 values follow.
- tgt: Cathepsin K (Homo sapiens)
- Construct: purchased Biovision K150-100
- Sequence (P43235 115-329): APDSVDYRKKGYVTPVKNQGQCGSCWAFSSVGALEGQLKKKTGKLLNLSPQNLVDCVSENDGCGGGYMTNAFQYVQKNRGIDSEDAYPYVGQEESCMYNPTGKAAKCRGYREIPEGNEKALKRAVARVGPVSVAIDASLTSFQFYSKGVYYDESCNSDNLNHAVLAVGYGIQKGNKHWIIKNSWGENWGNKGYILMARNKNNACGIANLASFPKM
- assay details: Preliminary screening of Cathepsin K (Cathepsin K Inhibitor Screening Kit K150-100, Biovision)
- Type: biochemical
- conditions: 1 μM compound; replicate 2; relative inhibition rate vs 10 μM FF-FMK control
Your answer should be a plain number; it is taken to be in %.

See these solved cases before continuing.
CCOC(=O)[C@H]1O[C@@H]1C(=O)N[C@H](CSCc1ccccc1)C(=O)NCCc1ccc(OC)cc1 : 44.11
CCOC(=O)[C@H]1O[C@@H]1C(=O)N[C@@H](CC(C)C)C(=O)NCCC(C)C [zxy-37, E64d, reference compound] : 87.75
CCOC(=O)[C@H]1O[C@@H]1C(=O)N[C@@H](CCSC)C(=O)NCCC(C)C : 20.59

CCCNC(=O)[C@H]1O[C@@H]1C(=O)N[C@H](C(=O)N1CCC[C@H]1C(=O)O)[C@@H](C)CC [zxy-60, CA-074, reference compound] tested on Cathepsin K (Homo sapiens) gave Inhibition % (1 μM) replicate 2: 92.44

Reading of Inhibition % (1 μM) replicate 2 for CCOC(=O)[C@H]1O[C@@H]1C(=O)N[C@H](CSCc1ccccc1)C(=O)NCC(C)CC (some centres unmarked) with Cathepsin K (Homo sapiens): −7.18
